Sourced from patent US20260137697A1

- System Under Test: CRAF (Homo sapiens, UniProt P04049)
- Construct: fused on or other part: GST tag (N-terminal according to the vendor's product)
- Sequence (P04049 whole entry Y340E/Y341E, form open, the tested form may be a part): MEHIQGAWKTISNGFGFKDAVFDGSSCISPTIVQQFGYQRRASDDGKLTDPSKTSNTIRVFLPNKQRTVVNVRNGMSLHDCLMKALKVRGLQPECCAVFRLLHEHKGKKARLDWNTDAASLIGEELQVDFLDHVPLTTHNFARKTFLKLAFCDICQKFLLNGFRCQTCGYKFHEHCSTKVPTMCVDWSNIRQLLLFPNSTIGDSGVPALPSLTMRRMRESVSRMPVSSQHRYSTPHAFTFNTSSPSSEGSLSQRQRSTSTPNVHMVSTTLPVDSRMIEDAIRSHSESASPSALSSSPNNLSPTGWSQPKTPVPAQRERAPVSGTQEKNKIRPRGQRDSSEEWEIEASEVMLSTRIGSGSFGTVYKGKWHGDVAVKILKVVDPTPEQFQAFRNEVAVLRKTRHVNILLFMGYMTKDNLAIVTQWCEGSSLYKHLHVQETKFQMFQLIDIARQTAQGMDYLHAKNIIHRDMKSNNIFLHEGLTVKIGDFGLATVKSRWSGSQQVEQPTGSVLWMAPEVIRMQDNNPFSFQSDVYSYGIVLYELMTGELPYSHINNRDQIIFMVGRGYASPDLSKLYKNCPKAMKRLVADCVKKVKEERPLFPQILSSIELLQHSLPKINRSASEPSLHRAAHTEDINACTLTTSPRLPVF
- Test Protocol: CRAF kinase activity assay (ADP-Glo)
- Format: biochemical
- Assay Setup: Table 3; 10 μM ATP, kinase-dead MEK1 substrate
Readout Label: IC50

{"Compound": "NC(=O)c1cccc2c1ncn2-c1nc2c(Nc3c(F)ccc(NS(=O)(=O)c4cccc(Cl)c4Cl)c3F)ncnc2s1", "Measurement": "< 10 nM"}
{"Compound": "O=S(=O)(Nc1ccc(F)c(Nc2ncnc3sc(-n4cnc5cc(Cl)c(Cl)cc54)nc23)c1F)c1cccc(Cl)c1Cl", "Measurement": "10 to 50 nM"}
{"Compound": "O=C(c1cccs1)c1cn(-c2nc3c(Nc4c(F)ccc(NS(=O)(=O)c5cccc(Cl)c5Cl)c4F)ncnc3s2)c2ccccc12", "Measurement": "> 50 nM"}
{"Compound": "Cc1c(F)cccc1S(=O)(=O)Nc1ccc(F)c(Nc2ncnc3sc(-n4nc(C(=O)N(C)CCc5ccccn5)c5ccccc54)nc23)c1F", "Measurement": "> 50 nM"}
{"Compound": "Nc1ncccc1-c1cccc2c1ncn2-c1nc2c(Nc3c(F)ccc(NS(=O)(=O)c4cccc(Cl)c4Cl)c3F)ncnc2s1", "Measurement": "10 to 50 nM"}
{"Compound": "COc1ccc(S(=O)(=O)Nc2ccc(F)c(Nc3ncnc4sc(-n5cnc6c(C(C)(C)C#N)cccc65)nc34)c2F)c(C)c1F", "Measurement": "> 50 nM"}
{"Compound": "Cc1c(F)cccc1S(=O)(=O)Nc1ccc(F)c(Nc2ncnc3sc(-n4nnc5ccccc54)nc23)c1F", "Measurement": "> 50 nM"}
{"Compound": "Cc1c(F)cccc1S(=O)(=O)Nc1ccc(F)c(Nc2ncnc3sc(-n4cnc5c(-c6cccnc6)cccc54)nc23)c1F", "Measurement": "10 to 50 nM"}
{"Compound": "COCCNS(=O)(=O)c1cn(-c2nc3c(Nc4c(F)ccc(NS(=O)(=O)c5cccc(Cl)c5Cl)c4F)ncnc3s2)c2ccccc12", "Measurement": "< 10 nM"}
{"Compound": "O=S(=O)(Nc1ccc(F)c(Nc2ncnc3sc(-n4cc(S(=O)(=O)C5CCCC5)c5ccccc54)nc23)c1F)c1cccc(Cl)c1Cl", "Measurement": "> 50 nM"}
{"Compound": "CC1(O)CCN(c2cccc3c2ncn3-c2nc3c(Nc4c(F)ccc(NS(=O)(=O)c5cccc(Cl)c5Cl)c4F)ncnc3s2)CC1", "Measurement": "10 to 50 nM"}
{"Compound": "CN(C1CCOC1)S(=O)(=O)c1cn(-c2nc3c(Nc4c(F)ccc(NS(=O)(=O)c5cccc(Cl)c5Cl)c4F)ncnc3s2)c2ccccc12 (stereo not shown)", "Measurement": "10 to 50 nM"}
{"Compound": "Cc1c(F)cccc1S(=O)(=O)Nc1ccc(F)c(Nc2ncnc3sc(-c4cncs4)nc23)c1F", "Measurement": "> 50 nM"}

---

Quick list: EC50 per entry.
- Tested on: RKO cells
- Test Protocol: Proliferation inhibition, CellTiter-Glo, RKO
- Type: cell-based, human
- Assay Setup: Table D-1; RKO (BRAF V600E), 3 days; read-out: Prolif. (proliferation EC50)
- Method: All cancer cell lines (A375, A101D, A2058, RKO, HT29 SK-MEL 30, IPC298, HepG2, HCT-116, Lovo, SW620, SW480, NCI-H358, NCI-H2122, Calu-6, NCIH2087, NCIH1755, NCIH1666 and Mewo) were obtained from ATCC and cultured in RPM1-1640 medium (Gibco) supplemented with 5% heat inactivated fetal bovine serum (FBS, Wisent) at 37° C. under 5% CO2. […] The effect of each compound dilution on the proliferation of cancer cell lines was expressed in % inhibition and calculated as follows. […]

{"Given Smiles": "Cc1c(F)cccc1S(=O)(=O)Nc1ccc(F)c(Nc2ncnc3sc(-n4cc(C(=O)N5C6CCC5CN(C)C6)c5ccccc54)nc23)c1F", "EC50": "< 0.3 µM"}
{"Given Smiles": "N#CC1(c2cccc3c2ncn3-c2nc3c(Nc4c(F)ccc(NS(=O)(=O)c5cccc(Cl)c5Cl)c4F)ncnc3s2)CC1", "EC50": "< 0.3 µM"}

---

Quick list: pIC50 per entry.
- System Under Test: BRAF (Homo sapiens)
- Construct: GST; purchased Millipore Sigma B4062-10UG
- Sequence (P15056 whole entry): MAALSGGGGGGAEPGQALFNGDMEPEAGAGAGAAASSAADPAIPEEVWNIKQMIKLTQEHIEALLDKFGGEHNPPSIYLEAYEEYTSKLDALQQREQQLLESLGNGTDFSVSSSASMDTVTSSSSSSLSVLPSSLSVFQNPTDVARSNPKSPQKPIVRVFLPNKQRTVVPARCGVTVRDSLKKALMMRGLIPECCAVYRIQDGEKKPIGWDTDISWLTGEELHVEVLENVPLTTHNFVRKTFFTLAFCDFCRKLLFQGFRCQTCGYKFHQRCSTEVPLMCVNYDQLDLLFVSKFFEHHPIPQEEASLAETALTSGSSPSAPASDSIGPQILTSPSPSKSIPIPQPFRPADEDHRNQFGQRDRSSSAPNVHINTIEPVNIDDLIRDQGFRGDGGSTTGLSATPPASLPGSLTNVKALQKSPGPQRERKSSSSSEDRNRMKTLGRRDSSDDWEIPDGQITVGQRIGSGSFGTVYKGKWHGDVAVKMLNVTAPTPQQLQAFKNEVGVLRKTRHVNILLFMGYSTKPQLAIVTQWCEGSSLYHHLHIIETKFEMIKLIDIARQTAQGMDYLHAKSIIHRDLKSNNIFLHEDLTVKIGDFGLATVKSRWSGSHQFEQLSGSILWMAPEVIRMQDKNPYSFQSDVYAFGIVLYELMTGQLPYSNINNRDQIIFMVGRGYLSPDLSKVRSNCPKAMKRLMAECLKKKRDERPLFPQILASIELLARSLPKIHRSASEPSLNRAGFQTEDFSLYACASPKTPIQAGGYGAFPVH
- Test Protocol: BRAF kinase activity assay (ADP-Glo)
- Type: biochemical
- Assay Setup: Table 3; 10 μM ATP, kinase-dead MEK1 substrate
pIC50: −log10 of the molar value.

{"Given Smiles": "CC1(CO)CCN(c2cccc3c2ncn3-c2nc3c(Nc4c(F)ccc(NS(=O)(=O)c5cccc(Cl)c5Cl)c4F)ncnc3s2)CC1", "pIC50": "< 8.00"}
{"Given Smiles": "O=S(=O)(Nc1ccc(F)c(Nc2ncnc3sc(-n4cnc5c(N6CCNCC6)cccc54)nc23)c1F)c1cccc(Cl)c1Cl", "pIC50": "> 9.00"}
{"Given Smiles": "CCS(=O)(=O)c1cn(-c2nc3c(Nc4c(F)ccc(NS(=O)(=O)c5cccc(Cl)c5Cl)c4F)ncnc3s2)c2ccccc12", "pIC50": "8.00 to 9.00"}
{"Given Smiles": "COc1ccc(S(=O)(=O)Nc2ccc(F)c(Nc3ncnc4sc(-n5cnc6c(N)cccc65)nc34)c2F)c(C)c1F", "pIC50": "8.00 to 9.00"}
{"Given Smiles": "CN(Cc1ccncc1)C(=O)c1cn(-c2nc3c(Nc4c(F)ccc(NS(=O)(=O)c5cccc(Cl)c5Cl)c4F)ncnc3s2)c2ccccc12", "pIC50": "> 9.00"}
{"Given Smiles": "O=S(=O)(Nc1ccc(F)c(Nc2ncnc3sc(-n4cnc5c(F)cc(OCCO)cc54)nc23)c1F)c1cccc(Cl)c1Cl", "pIC50": "8.00 to 9.00"}

---

- System Under Test: CRAF (Homo sapiens, UniProt P04049)
- Construct: fused on or other part: GST tag (N-terminal according to the vendor's product)
- Test Protocol: CRAF kinase activity assay (ADP-Glo)
- Assay type: biochemical
- Assay Setup: Table 3; 10 μM ATP, kinase-dead MEK1 substrate
pIC50: −log10 of the molar value.
Quick list: pIC50 per entry.
Readout Label: pIC50

{"Compound": "CC1(C#N)CCN(c2cccc3c2ncn3-c2nc3c(Nc4c(F)ccc(NS(=O)(=O)c5cccc(Cl)c5Cl)c4F)ncnc3s2)CC1", "Measurement": "< 7.30"}
{"Compound": "CC(=O)c1cn(-c2nc3c(Nc4c(F)ccc(NS(=O)(=O)c5cccc(Cl)c5Cl)c4F)ncnc3s2)c2ccccc12", "Measurement": "< 7.30"}
{"Compound": "O=C(c1cn(-c2nc3c(Nc4c(F)ccc(NS(=O)(=O)c5cccc(Cl)c5Cl)c4F)ncnc3s2)c2ccccc12)N1C2CCC1COC2", "Measurement": "> 8.00"}
{"Compound": "Cc1cn(-c2nc3c(Nc4c(F)ccc(NS(=O)(=O)c5cccc(Cl)c5Cl)c4F)ncnc3s2)cn1", "Measurement": "> 8.00"}
{"Compound": "COc1ccc(S(=O)(=O)Nc2ccc(F)c(Nc3ncnc4sc(-n5cnc6c(N)cccc65)nc34)c2F)c(C)c1Cl", "Measurement": "7.30 to 8.00"}
{"Compound": "O=S(=O)(Nc1ccc(F)c(Nc2ncnc3sc(-n4cnc5c(N6C7CCC6CC(O)C7)cccc54)nc23)c1F)c1cccc(Cl)c1Cl (stereo not drawn)", "Measurement": "< 7.30"}

---

- System Under Test: CRAF (Homo sapiens)
- Construct: fused on or other part: GST tag (N-terminal according to the vendor's product)
- Test Protocol: CRAF kinase activity assay (ADP-Glo)
- Type: biochemical
- Assay Setup: Table 4; 10 μM ATP, kinase-dead MEK1 substrate

{"Given Smiles": "O=S(=O)(Nc1cc(F)c(F)c(Nc2ncnc3sc(-n4cnc5ccccc54)nc23)c1F)c1cccc(Cl)c1Cl", "IC50": "< 10 nM"}

---

- Tested on: pERK, NCIH1755 cells
- Test Protocol: Phospho-ERK inhibition, AlphaLISA p-ERK 1/2, NCIH1755
- Format: cell-based, human
- Assay Setup: Homo sapiens, NCI-H1755; Table D-2; NCIH1755 (BRAF G469A)
pIC50: −log10 of the molar value.
Readout Label: pIC50

{"Molecule": "Cc1ccc2c(Nc3cccc(Cl)c3F)nccc2c1NC(=O)c1csc2c(N)ncnc12 [Belvarafenib, reference compound]", "Measurement": "6.52 to 7.52"}

---

- Tested on: pERK, SW480 cells
- Test Protocol: Phospho-ERK inhibition, AlphaLISA p-ERK 1/2, SW480
- Type: cell-based, human
- Assay Setup: Table D-2; SW480 (KRAS G12D)
pIC50: −log10 of the molar value.

{"Given Smiles": "N#CC1(c2cccc3c2ncn3-c2nc3c(Nc4c(F)ccc(NS(=O)(=O)c5cccc(Cl)c5Cl)c4F)ncnc3s2)CC1", "pIC50": "6.52 to 7.52"}
{"Given Smiles": "Cc1c(F)cccc1S(=O)(=O)Nc1ccc(F)c(Nc2ncnc3sc(-n4cc(C(=O)N5C6CCC5CN(C)C6)c5ccccc54)nc23)c1F", "pIC50": "6.52 to 7.52"}
